// compounds with reported IC50 on Melanocortin receptor 4 (Homo sapiens, UniProt P32245), multi-publication

Answered examples (5):
CC(C)C(=O)N(C1CCCCC1)[C@H]1CCN(C(=O)[C@@H](Cc2ccc(Cl)cc2)NC(=O)[C@H]2CCCN2)C1 = 100 to 500 nM
Cc1ccc(C2CCN(C(=O)[C@@H](Cc3ccc(Cl)cc3Cl)NC(=O)N3CCCC3)CC2)c(N(C)CCN2CCCC2)n1 = ≤ 100 nM
CC[C@@H](CN(C)C)Oc1cc(F)cnc1C1CCN(C(=O)[C@@H](Cc2ccc(Cl)cc2Cl)NC(=O)N2CCCC2)CC1 = ≤ 100 nM
COc1ccc2nc(N[C@@H]3CN(C(=O)Cc4ccc(OC(F)(F)F)cc4)C[C@H]3O)nc(N3CCN(C(C)=O)CC3)c2c1 = 1 nM
CC[C@H](COc1cccnc1C1CCN(C(=O)[C@@H](Cc2ccc(Cl)cc2Cl)NC(=O)N2CC[C@@H](OC(C)=O)C2)CC1)N(C)C = ≤ 100 nM

Moving on to the next compound.
Q: Provide IC50, tested on Melanocortin receptor 4 (Homo sapiens, UniProt P32245), for "CN(C)C(=O)N1CCN(c2nc(N[C@H]3CCN(C(=O)Cc4ccc(OC(F)(F)F)cc4)C3)nc3ccccc23)CC1" .
A: 21 nM

---

// compounds with reported IC50 on Melanocortin receptor 4 (Homo sapiens, UniProt P32245), multi-publication

Answered examples (5):
Cc1cc(N2CCOCC2)nc(N[C@H]2CCN(C(=O)Cc3ccc(OC(F)(F)F)cc3)C2)n1 = 56 nM
CC(C)C(=O)N(C1CCCCC1)[C@H]1CCN(NC(=O)[C@@H](Cc2ccc(Cl)cc2)NC[C@H]2CCCN2)C1 = 100 to 500 nM
CC[C@H](COc1cccnc1C1CCN(C(=O)[C@@H](Cc2ccc(Cl)cc2Cl)NC(=O)N2CC[C@@H](F)C2)CC1)N1CCCC1 = ≤ 100 nM
CO[C@@H]1CN(C(=O)Cc2ccc(OC(F)(F)F)cc2)C[C@H]1Nc1cc(N2CCOCC2)cc(C)n1 = 19 nM
CC[C@H](COc1cccnc1C1CCN(C(=O)[C@@H](Cc2ccc(Cl)cc2Cl)NC(=O)N(CCOC)CCOC)CC1)N1CCCC1 = ≤ 100 nM

Q: Provide IC50, tested on Melanocortin receptor 4 (Homo sapiens, UniProt P32245), for CC[C@H](COc1cccnc1C1CCN(C(=O)[C@@H](Cc2ccc(Cl)cc2Cl)NC(=O)N2CCCC(C)(O)C2)CC1)N(C)C (stereo partly shown) .
A: ≤ 100 nM

Q: Provide IC50, tested on Melanocortin receptor 4 (Homo sapiens, UniProt P32245), for "CC[C@H](COc1cc(Cl)cnc1C1CCN(C(=O)[C@@H](Cc2ccc(Cl)cc2Cl)NC(=O)N2CCCC2)CC1)N1CCCC1" .
A: ≤ 100 nM

Q: Provide IC50, tested on Melanocortin receptor 4 (Homo sapiens, UniProt P32245), for "CC[C@H](COc1nc(C)ncc1C1CCN(C(=O)[C@@H](Cc2ccc(Cl)cc2Cl)NC(=O)N2CCCC2)CC1)N(C)C" .
A: ≤ 100 nM

Q: Provide IC50, tested on Melanocortin receptor 4 (Homo sapiens, UniProt P32245), for "Cc1cc(N2CCS(=O)(=O)CC2)nc(N[C@H]2CCN(C(=O)Cc3ccc(OC(F)(F)F)cc3)C2)n1" .
A: 39 nM

Q: Provide IC50, tested on Melanocortin receptor 4 (Homo sapiens, UniProt P32245), for "COc1cc(N[C@H]2CCN(C(=O)Cc3ccc(OC(F)(F)F)cc3)C2)nc2ccc(C)cc12" .
A: 16 nM

Q: Provide IC50, tested on Melanocortin receptor 4 (Homo sapiens, UniProt P32245), for "CN1CCN(Cc2cc(Cl)cnc2C2CCN(C(=O)[C@@H](Cc3ccc(Cl)cc3Cl)NC(=O)N3CCCC3)CC2)CC1" .
A: ≤ 100 nM

Q: Provide IC50, tested on Melanocortin receptor 4 (Homo sapiens, UniProt P32245), for "C[C@H](COc1cccnc1C1CCN(C(=O)[C@@H](Cc2ccc(Cl)cc2Cl)NC(=O)N2CCCC2)CC1)N(C)C" .
A: ≤ 100 nM

Q: Provide IC50, tested on Melanocortin receptor 4 (Homo sapiens, UniProt P32245), for "CC[C@@H](CN1CCCC1)Oc1nccnc1C1CCN(C(=O)[C@@H](Cc2ccc(Cl)cc2Cl)NC(=O)N2CCCC2)CC1" .
A: ≤ 100 nM

Q: Provide IC50, tested on Melanocortin receptor 4 (Homo sapiens, UniProt P32245), for "CN1CC[C@H](Oc2cccnc2C2CCN(C(=O)[C@@H](Cc3ccc(Cl)cc3Cl)NC(=O)N3CCCC3)CC2)C1" .
A: 100 to 1000 nM

Q: Provide IC50, tested on Melanocortin receptor 4 (Homo sapiens, UniProt P32245), for "Cc1cnc(N(C)CCN2CCCC2)c(C2CCN(C(=O)[C@@H](Cc3ccc(Cl)cc3Cl)NC(=O)N3CCCC3)CC2)c1" .
A: 100 to 1000 nM

Q: Provide IC50, tested on Melanocortin receptor 4 (Homo sapiens, UniProt P32245), for "CC(=O)N[C@H](Cc1cccc2ccccc12)C(=O)N[C@@H](CCCNC(=N)N)C(=O)N[C@H](Cc1ccc2ccccc2c1)C(N)=O" .
A: 690 nM

---

pIC50: −log10 of the molar value.
// molecules with reported pIC50 on Melanocortin receptor 4 (Homo sapiens, UniProt P32245), multi-publication
measured-endpoint: pIC50

Answered examples (5):
Cc1cc(N2CCCOCC2)nc(N[C@H]2CCN(C(=O)Cc3ccc(OC(F)(F)F)cc3)C2)n1 = 7.55
N=C(N)NCCC[C@@H]1NC(=O)[C@@H](Cc2ccc3ccccc3c2)NC(=O)C2CC2C(=O)NCCCC[C@@H](C(N)=O)NC(=O)[C@H](Cc2c[nH]c3ccccc23)NC1=O (single isomer, unassigned) = 9.22
N[C@H]1CC[C@@H](N[C@H](Cc2ccc(Cl)cc2)C(=O)N2CCC(Cn3cncn3)(C3CCCCC3)CC2)CC1 = 6.70
O=C(Cc1ccc(OC(F)(F)F)cc1)N1CC[C@H](Nc2nc(N3CCC(N4CCOCC4)CC3)c3ccc(F)cc3n2)C1 = 7.43
CO[C@@H]1CN(C(=O)Cc2ccc(OC(F)(F)F)cc2)C[C@H]1Nc1nc(C)cc(N2CCOCC2)n1 = 7.44

(A) Cc1ccc2nc(N[C@@H]3CN(C(=O)Cc4ccc(OC(F)(F)F)cc4)C[C@H]3O)cc(C)c2c1
(B) O=C1CN(c2nc(N[C@H]3CCN(C(=O)Cc4ccccc4-c4ccccc4)C3)nc3ccccc23)CCN1
Q: Compare A and B by numeric pIC50 and name the larger one. Selection: enter the item's label.
A: B
